# Test system: ACHN renal
# testProtocol: NCI-60 one-dose screen, 48 h
# particulars: 10 µM unless noted
Compounds without any hit were thinned out: in the full panel of roughly 83,000, 20% have a hit. Active and inactive are the calls of the source. Rule for the calls: active = growth percent below 10; inactive = the rest.
Select the correct class. Options are T for active, F for inactive and nothing else.

>>> classassignment("CN1C(=O)C2(C(C#N)=C(c3ccc(Cl)cc3)Nc3c2c(-c2ccccc2)nn3-c2ccccc2)c2ccccc21 (configuration not stated)")
"F"
>>> classassignment("O=C(N=Nc1c(O)[nH]c2ccc(Br)cc12)c1ccc2nc(-c3ccc(Cl)cc3)[nH]c2c1")
"F"

// query Test call, this compound: CCCSc1nnc(-c2sc3nc4ccccc4n3c2C)o1
// result F

// query Could you kindly confirm the outcome this assay logged for COc1ccccc1NC(=O)N/N=C/c1c[nH]c2ccccc12 ?
// result F

// query Dear colleague, could you share the recorded outcome for N#CC1=C(c2cccs2)Nc2c(c(-c3ccccc3)nn2-c2ccccc2)C12C(=O)Nc1ccc(Cl)cc12 (configuration not stated) when you have a moment?
// result F

// query Could you kindly confirm the outcome this assay logged for CC(=O)c1c2c(c3ccc4c5ccccc5ccc4n13)C(=O)c1ccccc1C2=O ?
// result F

// query // outcome(item) with item = O=C(CSc1nc2sc3c(c2c(=O)n1-c1ccc(Cl)cc1)CCCC3)NNC(=O)c1ccc(F)cc1
// result F

// query Assay result, entry Fc1ccc(F)c(CNc2nc(SCCN3CCOCC3)nc3c2cnn3CC(Cl)c2ccc(Br)cc2)c1 (configuration not stated) — outcome?
// result F

// query Could you kindly confirm the outcome this assay logged for Clc1ccc2c(NCCNC34CC5CC(CC(C5)C3)C4)ccnc2c1 ?
// result T

---

# Test system: MALME-3M melanoma
# testProtocol: NCI-60 one-dose screen, 48 h (100 = growth as untreated, 0 = no growth, -100 = all killed)
# particulars: 10 µM unless noted
About 83,000 compounds went through this panel and 20% of them were active in at least one assay; those are over-represented in the sample as a whole. Active and inactive are the calls of the source. Rule for the calls: active = growth percent below 10; inactive = the rest.
Entries and their measured growth follow.

Worked examples follow.
>>> valuereported("CCCCNc1ccc2c3c(cccc13)C(=O)N(NCC(O)COc1ccc3c(C)cc(=O)oc3c1)C2=O (stereo not given)")
"110% (inactive)"
>>> valuereported("Cn1cc(-c2cc(N)n3nc(-c4c[nH]c5ccc(F)cc45)cc3n2)c2cc(Br)cnc21")
"75.6% (inactive)"
>>> valuereported("Nc1nnc(-c2cncc(Br)c2)c(-c2c[nH]c3ccc(Br)cc23)n1")
"74.1% (inactive)"
>>> valuereported("O=C(CSc1nnc(-c2ccc(-c3nc4ccc(Cl)cc4[nH]3)cc2)o1)Nc1ccc(Br)cc1")
"-20.2% (active)"
>>> valuereported("O=C(CSc1nc2sc3c(c2c(=O)n1-c1ccc(Cl)cc1)CCCC3)NNC(=O)c1ccc(Br)cc1")
"69.2% (inactive)"
>>> valuereported("C=CCSc1nnc(-c2c(C)nc3sccn23)o1")
"109% (inactive)"
>>> valuereported("CCCN(CCC)S(=O)(=O)c1ccc(C(=O)O)cc1.CCCN(CCC)S(=O)(=O)c1ccc(C(=O)O)cc1.[Cl][Pt+2][Cl].[NH2-].[NH2-]")
"-98.1% (active)"
>>> valuereported("CC(=O)c1c2c(c3ccc4c5ccccc5ccc4n13)C(=O)c1ccccc1C2=O")
"-49.5% (active)"
>>> valuereported("COc1ccc2c(c1)C(Sc1ccc(Br)cc1)c1c(nc(N)c(C#N)c1N)O2 (stereo not given)")
"85.2% (inactive)"

Turning now to a further record.
Consider COc1sc(/C=N/NC(=O)c2[nH]c3ccc(Br)cc3c2-c2ccccc2)cc1Br . Its measured growth is 48% (inactive)
